- studySystem: AR protein (Homo sapiens, UniProt P10275, T878A)
- Construct: degradation activity of the compounds disclosed in the present disclosure on AR protein in LNCaP cells; host or cells: LNCaP FGC
- Sequence (P10275 whole entry T878A): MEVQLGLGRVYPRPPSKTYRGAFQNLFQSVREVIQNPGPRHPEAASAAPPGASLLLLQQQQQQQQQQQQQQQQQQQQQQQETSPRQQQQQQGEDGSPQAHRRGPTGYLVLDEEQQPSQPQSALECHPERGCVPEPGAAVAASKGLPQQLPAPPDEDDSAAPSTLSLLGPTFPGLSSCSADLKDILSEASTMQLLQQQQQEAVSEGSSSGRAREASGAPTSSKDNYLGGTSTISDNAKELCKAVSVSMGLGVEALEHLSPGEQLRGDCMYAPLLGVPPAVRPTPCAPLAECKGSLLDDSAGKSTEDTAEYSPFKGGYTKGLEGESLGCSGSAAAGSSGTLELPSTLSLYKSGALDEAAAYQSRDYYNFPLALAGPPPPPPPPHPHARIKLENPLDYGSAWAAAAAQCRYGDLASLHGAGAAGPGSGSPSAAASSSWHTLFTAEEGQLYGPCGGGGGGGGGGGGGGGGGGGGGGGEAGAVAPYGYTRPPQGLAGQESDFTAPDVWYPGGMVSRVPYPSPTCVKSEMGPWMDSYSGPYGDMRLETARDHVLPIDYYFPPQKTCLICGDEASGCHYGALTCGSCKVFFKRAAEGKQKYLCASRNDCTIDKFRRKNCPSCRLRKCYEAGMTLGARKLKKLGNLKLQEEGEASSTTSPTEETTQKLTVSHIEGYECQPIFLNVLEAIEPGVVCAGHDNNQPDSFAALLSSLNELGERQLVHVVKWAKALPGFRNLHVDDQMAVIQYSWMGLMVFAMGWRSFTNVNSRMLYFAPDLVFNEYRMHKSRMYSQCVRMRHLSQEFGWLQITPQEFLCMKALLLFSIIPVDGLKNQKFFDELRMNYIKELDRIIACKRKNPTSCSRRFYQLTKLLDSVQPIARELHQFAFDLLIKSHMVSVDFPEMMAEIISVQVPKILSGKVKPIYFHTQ
- assayComment: Degradation of AR protein in LNCaP cells (Western blot)
- Format: cell-based
- testConditions: LNCaP cells, compound 10 nM, 8 hours, Western blot grayscale, GAPDH internal reference; read-out: Degradation rates of the AR protein in LNCaP cells, 10 nM (%)
quantityMeasured: inhibition at 0.01 µM (%)

COc1cc(O[C@H]2C(C)(C)[C@H](NC(=O)c3ccc(N4CCC(C)(CN5CCC6(CC5)COc5c(ccc7c5C(=O)N(C5CCC(=O)NC5=O)C7)C6)CC4)cc3)C2(C)C)ccc1C#N (stereo partly drawn)	49

(P) N#Cc1ccc(O[C@H]2CC[C@H](NC(=O)c3ccc(N4CCC(F)(CN5CC6(CCc7ccc8c(c7O6)C(=O)N(C6CCC(=O)NC6=O)C8=O)C5)CC4)nn3)CC2)cc1Cl (stereo partly drawn)
(Q) COc1cc(O[C@H]2C(C)(C)[C@H](NC(=O)c3ccc(N4CCC(F)(CN5CCC6(CC5)COc5cc7c(cc5C6)C(=O)N(C5CCC(=O)NC5=O)C7=O)CC4)cc3)C2(C)C)ccc1C#N (stereo partly drawn)
# input Between P and Q , which one has the lower reported inhibition at 0.01 µM value? Refer to your chosen item by its label in the answer.
# output Q
(Q: -3%, P: 25%)
